Source of measurements: patent US20210163606A1

- experimental system: T1, human NRP2 variant 2 (hNRP2), untagged, on Expi293 cells (Human, UniProt O60462 23-931)
- T1 construct: Transcript NM_003872 / NP_003863.2; also called Expi293-hNRP2 clonal cells; Human NRP2a (version 2)
- T1 sequence: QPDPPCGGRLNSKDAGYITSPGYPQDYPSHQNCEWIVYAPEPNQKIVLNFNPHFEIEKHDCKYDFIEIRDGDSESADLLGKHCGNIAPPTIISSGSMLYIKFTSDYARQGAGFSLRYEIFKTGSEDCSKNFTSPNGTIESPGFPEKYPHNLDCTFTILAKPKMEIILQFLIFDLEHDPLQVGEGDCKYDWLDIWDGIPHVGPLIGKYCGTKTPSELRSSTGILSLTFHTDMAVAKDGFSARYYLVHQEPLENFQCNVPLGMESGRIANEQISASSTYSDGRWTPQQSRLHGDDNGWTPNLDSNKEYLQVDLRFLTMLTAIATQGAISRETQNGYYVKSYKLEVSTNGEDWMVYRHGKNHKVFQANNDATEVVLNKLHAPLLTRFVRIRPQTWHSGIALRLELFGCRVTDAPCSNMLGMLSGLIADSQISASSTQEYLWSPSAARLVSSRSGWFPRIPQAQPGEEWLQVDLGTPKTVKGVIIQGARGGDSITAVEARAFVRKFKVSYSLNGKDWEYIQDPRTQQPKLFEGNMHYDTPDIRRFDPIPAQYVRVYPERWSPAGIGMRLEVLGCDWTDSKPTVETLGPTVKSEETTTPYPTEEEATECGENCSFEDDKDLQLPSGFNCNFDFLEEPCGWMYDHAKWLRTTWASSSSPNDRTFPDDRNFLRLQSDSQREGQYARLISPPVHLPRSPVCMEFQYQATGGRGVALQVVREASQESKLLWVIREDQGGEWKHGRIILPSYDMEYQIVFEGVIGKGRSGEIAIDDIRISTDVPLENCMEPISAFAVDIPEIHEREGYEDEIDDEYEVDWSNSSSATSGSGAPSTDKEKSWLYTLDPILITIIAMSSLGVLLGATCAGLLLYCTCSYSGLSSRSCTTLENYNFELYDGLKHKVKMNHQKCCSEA
- test summary: flow cytometry on Expi293-hNRP2 clonal cells
parameter measured: pEC50
Reminder that pEC50 means the negative base-10 logarithm of the concentration expressed in mol/L.

Recorded pEC50, per entry:
[
  {
    "binder": "aNRP2-14v10 (antibody, V domains shown) VH: QLQLVESGGGVVQPGRSLRLSCTVSGFSLTSYGVHWVRQAPGKGLEWVGLIWSGGSTDYSPAFISRFTISEDNSKSTVYLQMNSLRAEDTAVYFCARNSYSSGYYAMDYWGQGTTVTVSS VL: DIQLTQSPSFLSASVGDRVTITCKASQNVGTAVAWYQQKPGKAPKLLIYSASNRYTGVPSRFSGSGSGTEFTLTISSLQPEDFATYYCQQRSRYPPYTFGGGTKVEIK",
    "pEC50": 7.32
  },
  {
    "binder": "aNRP2-10v10 (antibody, V domains shown) VH: EVQLVQSGAEVKKPGATVKISCKVSGFNIKDYYVHWVQQAPGKGLEWMGRIDVEDDETKYAPKFQGRVTITADTSTDTAYMELSSLRSEDTAVYYCATPIYGAREAWFAYWGQGTLVTVSS VL: DIQMTQSPSSLSASVGDRVTITCTASSSVSSSYLHWYQQKPGKAPKLLIYRTSNLASGVPSRFSGSGSGTDFTLTISSLQPEDFATYYCHQYYRSPPTFGGGTKVEIK",
    "pEC50": 10.05
  },
  {
    "binder": "aNRP2-14v9 (antibody, V domains shown) VH: QLQLVESGGGVVQPGRSLRLSCTVSGFSLTSYGVHWVRQAPGKGLEWVGLIWSGGSTDYSPAFISRFTISEDNSKSTVYLQMNSLRAEDTAVYFCARNSYSSGYYAMDYWGQGTTVTVSS VL: DIQLTQSPSFLSASVGDRVTITCKASQNVGHAVAWYQQKPGKAPKLLIYSASNRYTGVPSRFSGSGSGTEFTLTISSLQPEDFATYYCQQYSRYPPYTFGGGTKVEIK",
    "pEC50": 8.92
  }
]

## Input Which pEC50 value is on record for aNRP2-11v7 (antibody, V domains shown, also called aNRP22-11v7) VH: QVQLVQSGAEVKKPGASVKVSCKASGYTFTSFGISWVRQAPGQGLEWIGEIYPRSGNTYYNENFKGRATMTADKSTSTAYMELRSLRSDDTAVYYCARSSGYYGSTPFPYWGQGTLVTVSS VL: DIQMTQSPSSLSASVGDRVTITCRASQDISNYLNWYQQKPGKAVKLLIYYTSRLHSGVPSRFSGSGSGTDYTFTISSLQPEDIATYYCQQGNTLPWTFGGGTKVEIK ?
## Output 8.20
